These entries and their values trace back to patent US10759793B2.

- assayed.target: JAK1 (Homo sapiens (Human), UniProt P23458)
- Sequence (P23458 850-1154): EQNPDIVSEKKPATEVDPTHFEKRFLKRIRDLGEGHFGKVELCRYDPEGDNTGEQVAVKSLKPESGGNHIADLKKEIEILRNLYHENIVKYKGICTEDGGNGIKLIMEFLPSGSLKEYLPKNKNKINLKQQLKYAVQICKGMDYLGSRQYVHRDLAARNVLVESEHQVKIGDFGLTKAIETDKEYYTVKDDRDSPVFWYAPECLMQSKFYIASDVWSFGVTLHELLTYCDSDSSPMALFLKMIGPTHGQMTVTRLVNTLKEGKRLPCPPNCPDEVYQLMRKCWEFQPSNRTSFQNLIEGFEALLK
- measurement.protocol: In vitro JAK kinase assay (TR-FRET), JAK1
- Assay type: biochemical
- condition.set: catalytic domain aa 850-1154, GST-fusion; ATP 3 μM; peptide 60 nM; 30 minutes at room temperature
metric: IC50 (nM)

Below: 2 compounds and their reported IC50.
input_smiles=CCOC(=O)c1nc(-c2cnn3ccccc23)nc(N[C@@H]2CCCN(C(=O)CO)C2)c1F readout_number=10
input_smiles=N#CCC(=O)N1CCC[C@@H](Nc2nc(-c3cnn4ccccc34)nc(-c3ccc(CO)cc3)c2F)C1 readout_number=2

(I) Cc1cc(-c2nc(-c3cnn4ccccc34)nc(N[C@@H]3CCCN(C(=O)CC#N)C3)c2F)ccn1
(II) N#CCC(=O)N1CCC[C@@H](Nc2nc(-c3cnn4ccccc34)nc(-c3cncc(CO)c3)c2F)C1
Challenge: Recorded IC50 values differ for I and II ; which one is higher? // respond with label for picked entry
Response given: II

(1) N#CCC(=O)N1CCC[C@@H](Nc2nc(-c3cnn4ccccc34)nc(OCCO)c2F)C1
(2) Cc1ccc(-c2nc(-c3cnn4ccccc34)nc(N[C@@H]3CCCN(C(=O)CO)C3)c2F)cn1
(3) CCOCCOc1nc(-c2cnn3ccccc23)nc(N[C@@H]2CCCN(C(=O)CC#N)C2)c1F
(4) C[C@H](CO)Oc1nc(-c2cnn3ccccc23)nc(N[C@@H]2CCCN(C(=O)CO)C2)c1F
(5) C[C@H](O)COc1nc(-c2cnn3ccccc23)nc(O[C@@H]2CCCN(C(=O)CO)C2)c1F
Challenge: List items by IC50 in falling order. List the labels in the requested order.
Response given: 4, 5, 3, 2, 1
(4: 58 nM, 5: 14 nM, 3: 4 nM, 2: 2 nM, 1: 1 nM)

(A) N#CCC(=O)N1CCC[C@@H](Nc2cc(-c3cncc(O)c3)nc(-c3cnn4ccccc34)n2)C1
(B) Cc1cc(-c2nc(-c3cnn4ccccc34)nc(N(C)[C@@H]3CCCN(C(=O)CO)C3)c2F)ccn1
Challenge: Recorded IC50 values differ for A and B ; which one is higher? // respond with label for picked entry
Response given: B
(B: 3 nM, A: 1 nM)

(A) N#CCC(=O)N1CCC[C@@H](Nc2nc(-c3cnn4ccccc34)nc(-c3ccc(CO)nc3)c2F)C1
(B) C[C@H](Nc1nc(-c2cnn3ccccc23)nc(OC[C@@H](O)CO)c1F)c1ncc(F)cn1
Challenge: Recorded IC50 values differ for A and B ; which one is higher? // respond with label for picked entry
Response given: B
(B: 4 nM, A: 1 nM)

----------
- assayed.target: JAK3 (Homo sapiens (Human), UniProt P52333)
- Sequence (P52333 795-1124): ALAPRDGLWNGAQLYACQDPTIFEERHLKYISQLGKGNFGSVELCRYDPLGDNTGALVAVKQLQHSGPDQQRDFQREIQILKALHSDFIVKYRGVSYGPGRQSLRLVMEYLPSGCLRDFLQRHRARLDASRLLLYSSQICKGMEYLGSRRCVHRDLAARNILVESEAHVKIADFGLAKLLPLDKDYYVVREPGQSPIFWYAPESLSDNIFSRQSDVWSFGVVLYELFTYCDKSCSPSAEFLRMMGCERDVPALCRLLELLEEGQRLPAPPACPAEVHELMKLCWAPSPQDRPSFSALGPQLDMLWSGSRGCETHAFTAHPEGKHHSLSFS
- measurement.protocol: In vitro JAK kinase assay (TR-FRET), JAK3
- condition.set: catalytic domain aa 795-1124, GST-fusion; ATP 0.6 μM; peptide 140 nM; 30 minutes at room temperature
metric: IC50 (nM)

Below: 2 compounds and their reported IC50.
compound="COc1nc(-c2cnn3ccccc23)nc(O[C@@H]2CCCN(C(=O)CC#N)C2)c1F [Example 64]" readout_number=4
compound="O=C(CO)N1CCC[C@@H](Oc2nc(-c3cnn4ccccc34)nc(N3CCOCC3)c2F)C1 [Example 52]" readout_number=11

(a) N#CCC(=O)N1CCC[C@@H](Nc2nc(-c3cnn4ccccc34)nc(OCCO)c2F)C1 [Example 14]
(b) C[C@@H](CO)Oc1nc(-c2cnn3ccccc23)nc(N[C@@H]2CCCN(C(=O)CO)C2)c1F [Example 59]
Challenge: For the pair a and b , which member has the lower IC50 number? // respond with label for picked entry
Response given: a
(a: 1 nM, b: 4 nM)

----------
- assayed.target: JAK3 (Homo sapiens (Human), UniProt P52333)
- measurement.protocol: In vitro JAK kinase assay (TR-FRET), JAK3
- condition.set: catalytic domain aa 795-1124, GST-fusion; ATP 0.6 μM; peptide 140 nM; 30 minutes at room temperature
pIC50: −log10 of the molar value.
metric: pIC50

compound="O=C(CO)N1CCC[C@@H](Oc2nc(-c3cnn4ccccc34)nc(-c3ccnc(CO)c3)c2F)C1 [Example 74]" readout_number=8.40

(A) N#CC[C@H]1CC[C@H](Nc2nc(-c3cnn4ccccc34)nc(OC[C@@H](O)CO)c2F)CC1 [Example 6]
(B) Cc1cc(-c2cc(N[C@@H]3CCCN(C(=O)CC#N)C3)nc(-c3cnn4ccccc34)n2)cc(C)n1 [Example 102]
Challenge: Recorded pIC50 values differ for A and B ; which one is higher? // respond with label for picked entry
Response given: A

----------
- assayed.target: JAK3 (Homo sapiens (Human))
- measurement.protocol: In vitro JAK kinase assay (TR-FRET), JAK3
- condition.set: catalytic domain aa 795-1124, GST-fusion; ATP 0.6 μM; peptide 140 nM; 30 minutes at room temperature
pIC50: −log10 of the molar value.
metric: pIC50

Below: 10 compounds and their reported pIC50.
input_smiles=O=C(CO)N1CCC[C@@H](Nc2nc(-c3cnn4ccccc34)nc(N3CCC(O)CC3)c2F)C1 readout_number=8.40
input_smiles=Cc1ccc(-c2cc(N[C@@H]3CCCN(C(=O)CO)C3)nc(-c3cnn4ccccc34)n2)cn1 readout_number=8.15
input_smiles=COCCOc1nc(-c2cnn3ccccc23)nc(N[C@@H]2CCCN(C(=O)CO)C2)c1F readout_number=8.52
input_smiles=O=C(CO)N1CCC[C@@H](Oc2nc(-c3cnn4ccccc34)nc(NCCO)c2F)C1 readout_number=7.96
input_smiles=C[C@H](O)COc1nc(-c2cnn3ccccc23)nc(O[C@@H]2CCCN(C(=O)CO)C2)c1F readout_number=8.40
input_smiles=CN1CCN(c2nc(-c3cnn4ccccc34)nc(N[C@@H]3CCCN(C(=O)CO)C3)c2F)CC1 readout_number=8.70
input_smiles=N#CCC(=O)N1CCC[C@@H](Nc2nc(-c3cnn4ccccc34)nc(-c3ccc(CO)nc3)c2F)C1 readout_number=8.40
input_smiles=O=C(CO)N1CCC[C@@H](Nc2nc(-c3cnn4ccccc34)nc(N3CCC(CO)CC3)c2F)C1 readout_number=8.30
input_smiles=CCOc1nc(-c2cnn3ccccc23)nc(N[C@@H]2CCCN(C(=O)CO)C2)c1F readout_number=8.52
input_smiles=Cc1ncc(-c2nc(-c3cnn4ccccc34)nc(N[C@@H]3CCCN(C(=O)CO)C3)c2F)cn1 readout_number=8.10

(A) N#CCC(=O)N1CCC[C@@H](Oc2nc(-c3cnn4ccccc34)nc(OCCO)c2F)C1
(B) Cc1cc(-c2nc(-c3cnn4ccccc34)nc(O[C@@H]3CCCN(C(=O)CO)C3)c2F)ccn1
Challenge: Recorded pIC50 values differ for A and B ; which one is higher? // respond with label for picked entry
Response given: A
(A: 8.40, B: 7.59)

(A) N#CCC(=O)N1CCC[C@@H](Oc2nc(-c3cnn4ccccc34)nc(N3CCOCC3)c2F)C1
(B) CCOCCOc1nc(-c2cnn3ccccc23)nc(N[C@@H]2CCCN(C(=O)CC#N)C2)c1F
Challenge: For the pair A and B , which member has the lower pIC50 number? // respond with label for picked entry
Response given: A
(A: 8.52, B: 9.00)

(a) CN(C)CCOc1nc(-c2cnn3ccccc23)nc(N[C@H]2CC[C@H](CC#N)CC2)c1F
(b) N#CCC(=O)N1CCC[C@@H](Oc2nc(-c3cnn4ccccc34)nc(NCCO)c2F)C1
(c) CN1CCN(c2nc(-c3cnn4ccccc34)nc(O[C@@H]3CCCN(C(=O)CO)C3)c2F)CC1
Challenge: Sort ascending by pIC50. List the labels in the requested order.
Response given: c, b, a

(I) O=C(CO)N1CCC[C@@H](Nc2nc(-c3cnn4ccccc34)nc(OCCO)c2F)C1
(II) Cc1cc(-c2nc(-c3cnn4ccccc34)nc(N[C@@H]3CCCN(C(=O)CO)C3)c2F)ccn1
Challenge: For the pair I and II , which member has the lower pIC50 number? // respond with label for picked entry
Response given: II

(I) CCOC(=O)c1ccc(-c2nc(-c3cnn4ccccc34)nc(N[C@@H]3CCCN(C(=O)CO)C3)c2F)cn1
(II) Cc1cc(-c2nc(-c3cnn4ccccc34)nc(N[C@@H]3CCCN(C(=O)CC#N)C3)c2F)cc(C)n1
Challenge: For the pair I and II , which member has the lower pIC50 number? // respond with label for picked entry
Response given: I

----------
- assayed.target: JAK2 (Homo sapiens (Human))
- Sequence (O60674 826-1132): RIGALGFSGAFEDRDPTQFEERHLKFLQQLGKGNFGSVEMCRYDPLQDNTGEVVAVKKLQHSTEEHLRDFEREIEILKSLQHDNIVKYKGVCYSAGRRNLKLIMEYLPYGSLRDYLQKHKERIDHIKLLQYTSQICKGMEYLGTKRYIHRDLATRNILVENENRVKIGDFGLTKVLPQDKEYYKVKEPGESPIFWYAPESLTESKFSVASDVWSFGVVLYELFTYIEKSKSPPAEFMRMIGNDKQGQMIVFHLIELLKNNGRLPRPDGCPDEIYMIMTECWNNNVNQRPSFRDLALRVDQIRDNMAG
- measurement.protocol: In vitro JAK kinase assay (TR-FRET), JAK2
- condition.set: catalytic domain aa 826-1132, GST-fusion; ATP 0.2 μM; peptide 20 nM; 30 minutes at room temperature
metric: IC50 (nM)

molecule="O=C(CO)N1CCC[C@@H](Nc2nc(-c3cnn4ccccc34)nc(OCCO)c2F)C1 [Example 40]" metric=IC50 readout_number=0.8
molecule="C[C@H](Nc1nc(-c2cnn3ccccc23)nc(N2CCC(N)CC2)c1F)c1ccc(F)cn1 [Example 11]" metric=IC50 readout_number=1
molecule="O=C(CO)N1CCC[C@@H](Nc2nc(-c3cnn4ccccc34)nc(-c3cccnc3)c2F)C1 [Example 62]" metric=IC50 readout_number=1
